These entries and their values trace back to patent US12065505B2.

measurement.notes: SPR (Biacore) Protein A mAb capture, Compound A injected
condition.summary: 37° C., binding to Compound A, apparent, for rank ordering only
Experimental: The binding of hybridoma expressed 26D5 parent mAb (VH SEQ ID NO: 83 and VL SEQ ID NO: 98 in IgG1 f format)(P1-072224) and affinity matured mAbs to Compound A was examined by SPR (Biacore™) using a protein A capture method. The running buffer was 1×PBS (phosphate buffered saline, pH 7.4) with 0.05% Tween 20 and 2% DMSO. Binding experiments were carried out at 37° C. […] Apparent affinities were determined for rank ordering only since dissociation rates were too slow to be measured by Biacore. […]
parameter: Kd (s⁻¹)
Reply numerically in s⁻¹, unit not repeated.

In: Recorded Kd for 26D5-295-E07-mAb: human IgG1f/kappa mAb; VH SEQ ID NO: 66, VL SEQ ID NO: 88 (antibody, V domains shown) VH: EVQLVESGGGLIQPGGSLRLSCAASGFQVSSNAMSWVRQAPGKGLEWVSFIYSGGRTYYADSVKGRFTISRDNSKNTLYLQMNSLRAEDTAVYYCARGGFGGGDYWGQGTLVTVSS VL: DIQMTQSPSSVSASVGDRVTITCRASQGISSNLAWYQQKPGKAPKLLIYAASSLQSGVPSRFSGSGSGTDFTLTISSLQPEDFATYYCQQANSFPLTFGGGTKVEIK , please?
Out: 0.00023

In: Recorded Kd for 26D5-295-D07-mAb: human IgG1f/kappa mAb; VH SEQ ID NO: 75, VL SEQ ID NO: 88 (antibody, V domains shown) VH: EVQLVESGGGLIQPGGSLRLSCAASGFQVSENYMSWVRQAPGKGLEWVSFIYSGGRTYYADSVKGRFTISRDNSKNTLYLQMNSLRAEDTAVYYCARGGFGGGDYWGQGTLVTVSS VL: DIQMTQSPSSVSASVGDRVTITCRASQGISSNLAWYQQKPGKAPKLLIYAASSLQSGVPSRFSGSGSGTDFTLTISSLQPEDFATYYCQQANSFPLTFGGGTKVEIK , please?
Out: 0.00081

In: Recorded Kd for 26D5-75746-0348-C07-mAb: human IgG1f/kappa mAb; VH SEQ ID NO: 57, VL SEQ ID NO: 92 (antibody, V domains shown) VH: EVQLVESGGGLIQPGGSLRLSCAASGFTVSSNAFSWVRQAPGKGLEWVSYIYSGGRTYYADSVKGRFTISRDNSKNTLYLQMNSLRAEDTAVYYCAAAGFGGGDYWGQGTLVTVSS VL: DIQMTQSPSSVSASVGDRVTITCRASQGISSQVAWYQQKPGKAPKLLIYPASNLWSGVPSRFSGSGSGTDFTLTISSLQPEDFATYYCQQANNFPLTFGGGTKVEIK , please?
Out: 0.00024
